Decision: logP beneath 2 gives 1 (yes); logP meeting or exceeding 2 gives 0 (no).

Some solved entries appear below for comparison.
CC(O)CNc1ncc(-c2ccncc2)cc1C#N (stereo not given)
1 (yes)
CN(C)c1ncc(-c2ccncc2)cc1C#N
0 (no)
N#Cc1cc(-c2ccncc2)cnc1NCc1ccccc1
0 (no)
N#Cc1cc(-c2ccncc2)cnc1Cl
1 (yes)
N#Cc1cc(-c2ccncc2)cnc1N1CCCC1
0 (no)
N#Cc1cc(-c2ccncc2)cnc1NCCOCCO
1 (yes)
CCNc1ncc(-c2ccncc2)cc1C#N
0 (no)
COC(CNc1ncc(-c2ccncc2)cc1C#N)OC
0 (no)
N#Cc1cc(-c2ccncc2)cnc1NCCCO
1 (yes)
C=CCNc1ncc(-c2ccncc2)cc1C#N
0 (no)

Qu. Please check: logP for CCC(CO)Nc1ncc(-c2ccncc2)cc1C#N (stereo not given) , strictly under 2 or not?
Ans. 1 (yes)

Qu. Field: below-cutoff. Rule: recorded logP strictly less than 2. Subject: N#Cc1cc(-c2ccncc2)cnc1NCCCCO
Ans. 1 (yes)

Qu. # strict comparison: is reported logP < 2? input = N#Cc1cc(-c2ccncc2)cnc1NCCO
Ans. 1 (yes)

Qu. Does the reported logP of N#Cc1cc(-c2ccncc2)cnc1N(CCO)CCO stay below 2?
Ans. 1 (yes)
